// provenance: ChEMBL document CHEMBL1124622

compounds and their reported MIC
Tested on: HeLa
METHOD_NOTES: Minimum inhibitory concentration against Coxsackie virus B4 in HeLa cell cultures
Format: functional
APPLIED_CONDITIONS: Homo sapiens

// solved cases for MIC follow
* CC(C)(C)[Si](C)(C)OC[C@H]1O[C@@H](n2cnc3c(N)ncnc32)[C@H](O[Si](C)(C)C(C)(C)C)[C@H]1C#N | > 40 µg/mL
* CC(C)(C)[Si](C)(C)OC[C@H]1O[C@@H](n2ccc(=O)[nH]c2=O)[C@H](O[Si](C)(C)C(C)(C)C)[C@H]1C#N | > 4 µg/mL

Now for the compound whose MIC we want.
Challenge: HeLa / MIC / Cc1cn([C@H]2C[C@@H](C#N)[C@@H](CO)O2)c(=O)[nH]c1=O : value?
Response given: > 400 µg/mL

----------
molecules and their reported MIC
Test system: Vaccinia virus
METHOD_NOTES: Minimum inhibitory concentration against Vaccinia virus in primary rabbit kidney cell cultures
Type: functional
APPLIED_CONDITIONS: Orthopoxvirus vaccinia

- CC(C)(C)[Si](C)(C)OC[C@H]1O[C@@H](n2ccc(=O)[nH]c2=O)[C@H](O[Si](C)(C)C(C)(C)C)[C@H]1C#N: > 1 µg/mL
- CC(=O)Nc1ccn(C2OC(CO[Si](C)(C)C(C)(C)C)C(C#N)C2O[Si](C)(C)C(C)(C)C)c(=O)n1 (stereo unspecified): > 1 µg/mL
- CC(C)(C)[Si](C)(C)OC[C@H]1O[C@@H](n2cnc3c(N)ncnc32)[C@H](O[Si](C)(C)C(C)(C)C)[C@H]1C#N: > 40 µg/mL
- Cc1cn(C2C=C(C#N)C(CO)O2)c(=O)[nH]c1=O (stereo unspecified): > 100 µg/mL
- CC(C)(C)[Si](C)(C)OCC1OC(n2ccc(N)nc2=O)C(O[Si](C)(C)C(C)(C)C)C1C#N (stereo unspecified): > 4 µg/mL

Challenge: Param item = CC(C)(C)[Si](C)(C)OC[C@H]1O[C@@H](n2cnc3c(N)ncnc32)[C@H](O[Si](C)(C)C(C)(C)C)[C@@H]1C#N ; retrieve measured MIC.
Response given: > 4 µg/mL
